# System: human ovarian cancer (SKOV3) cells
# test-method-notes: MTT tumor cell growth inhibition, human ovarian cancer (SKOV3)
# Format: cell-based
# test-context: Homo sapiens, SK-OV-3; SKOV3, 48 h culture, MTT method; read-out: IC50 value of target compound against cancer cell proliferation, SKOV3
Consider the following molecules; for each one, report its log10 of IC50.
// units: µM (pre-log); metric: IC50; scale: log10

Find the recorded log10 of IC50 belonging to CCN(CC)CCOc1ccc(CN(C)CC(O)COc2c(Cl)cc(Br)cc2Cl)cc1OC (centres unmarked) and report it. 1.20

So what's the measured log10 of IC50 for this one? COc1cc(CN(C)CC(O)COc2cc(C(F)(F)F)ccc2Br)ccc1OCCN1CCC(C)CC1 (centres unmarked) 0.38

What measured log10 of IC50 goes with CCN(CC)CCOc1ccc(CN(C)CC(O)COc2cc(C(F)(F)F)ccc2Br)cc1OC (centres unmarked) ? 1.56

For the molecule shown here, COc1cc(CN(C)CC(O)COc2ccccc2I)ccc1OCCN1CCC(C)CC1 (centres unmarked) , give the reported log10 of IC50. 0.48

Record request: log10 of IC50 value, item COc1cc(CN(C)CC(O)COc2ccccc2C(F)(F)F)ccc1OCCN1CCC(C)CC1 (centres unmarked) 1.45

Form field: reported log10 of IC50 of COc1cc(CN(C)CC(O)COc2ccc(F)c(Br)c2)ccc1OCCN1CCC(C)CC1 (centres unmarked) 0.53

Would you mind telling me what log10 of IC50 value was observed for CCN(CC)CCOc1ccc(CN(C)CC(O)COc2ccc(Br)c(C(F)(F)F)c2)cc1OC (centres unmarked) ? 1.01

Fill in: log10 of IC50 of COc1cc(CN(C)CC(O)COc2cc(C(F)(F)F)ccc2C(F)(F)F)ccc1OCCN1CCC(C)CC1 (centres unmarked) is ___ 0.61

Item COc1cc(CN(C)CC(O)COc2ccc(Cl)c(Br)c2)ccc1OCCN1CCC(C)CC1 (centres unmarked) has what recorded log10 of IC50? 0.46

# log10 of IC50 lookup, item COc1cc(CN(C)CC(O)COc2cccc(Br)c2)ccc1OCCN1CCC(C)CC1 (centres unmarked) 0.39

Recorded log10 of IC50 of COc1cc(CN(C)CC(O)COc2cc(F)cc(Br)c2)ccc1OCCN1CCC(C)CC1 (centres unmarked) , please. 0.90

Requested read-out: log10 of IC50. Entry: COc1cc(CN(C)CC(O)COc2c(Br)cc(Br)cc2Br)ccc1OCCN1CCCC1 (centres unmarked) 0.62

Can you look up the measured log10 of IC50 of COc1cc(CN(C)CC(O)COc2ccc(Br)cc2OC)ccc1OCCN1CCC(C)CC1 (centres unmarked) for me? 0.60

For the molecule shown here, COc1cc(CN(C)CC(O)COc2ccc(C)c(Br)c2)ccc1OCCn1ccnc1 (centres unmarked) , give the reported log10 of IC50. 1.55

I am curious: what log10 of IC50 value has been reported for COc1cc(CN(C)CC(O)COc2ccc(Br)c(C(F)(F)F)c2)ccc1OCCn1ccnc1 (centres unmarked) ? 1.53

Query: log10 of IC50; subject: COc1cc(CN(C)CC(O)COc2cc(C(F)(F)F)ccc2Br)ccc1OCCn1ccnc1 (centres unmarked) 1.57

Would you mind telling me what log10 of IC50 value was observed for COc1cccc(OCC(O)CN(C)Cc2ccc(OCCN3CCC(C)CC3)c(OC)c2)c1 (centres unmarked) ? 0.79
